All values here come from patent US20140242083A1.

# Measured On: T1, Cynomolgus MCSP D3 (cynomolgus, UniProt Q6UVK1 1582-2224 (human entry), limits assumed)
# T1 construct: Soluble analyte in SPR
# T1 chain: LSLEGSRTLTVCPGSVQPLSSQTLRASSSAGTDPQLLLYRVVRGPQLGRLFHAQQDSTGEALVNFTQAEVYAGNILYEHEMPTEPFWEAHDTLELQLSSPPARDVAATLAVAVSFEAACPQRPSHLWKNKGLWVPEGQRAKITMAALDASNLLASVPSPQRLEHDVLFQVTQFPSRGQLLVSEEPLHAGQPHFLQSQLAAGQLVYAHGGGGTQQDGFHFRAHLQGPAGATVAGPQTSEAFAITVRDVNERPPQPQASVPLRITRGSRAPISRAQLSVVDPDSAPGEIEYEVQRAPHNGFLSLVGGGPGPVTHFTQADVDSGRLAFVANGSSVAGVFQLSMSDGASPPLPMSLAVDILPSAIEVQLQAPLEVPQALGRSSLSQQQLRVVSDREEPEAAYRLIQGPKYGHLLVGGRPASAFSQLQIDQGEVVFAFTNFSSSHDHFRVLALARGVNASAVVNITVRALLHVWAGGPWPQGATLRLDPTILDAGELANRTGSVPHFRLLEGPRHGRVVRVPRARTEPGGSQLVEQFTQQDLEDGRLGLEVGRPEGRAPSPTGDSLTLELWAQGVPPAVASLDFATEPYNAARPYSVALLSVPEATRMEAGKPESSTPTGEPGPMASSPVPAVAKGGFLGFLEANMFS
# Assay Name: SPR Biacore T200, 25 C, IgG captured on anti-human Fab, MCSP D3 as analyte, 1:1 Langmuir fit
Attribute Measured: Kd
Report as: number unit

### Prompt Dear colleague, I am looking for the recorded Kd of the following binder: M4-3 ML2 (E10/G3) (antibody, human IgG1, V domains shown) VH: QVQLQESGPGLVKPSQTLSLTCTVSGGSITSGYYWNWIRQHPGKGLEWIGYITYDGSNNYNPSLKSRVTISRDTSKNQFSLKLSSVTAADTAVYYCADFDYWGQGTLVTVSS VL: DIQMTQSPSSLSASVGDRVTITCRASYGIRGYLNWYQQKPGKAPKLLIYYTSSLHSGVPSRFSGSGSGTDFTLTISSLQPEDFATYHCQQYSALPWTFGQGTKVEIK
### Response 12.2 nM
